- Target: T1, EsCas13d, nuclease-dead (Eubacterium siraeum, UniProt B0MS50, R295A;H300A;R849A;H854A)
- T1 sequence: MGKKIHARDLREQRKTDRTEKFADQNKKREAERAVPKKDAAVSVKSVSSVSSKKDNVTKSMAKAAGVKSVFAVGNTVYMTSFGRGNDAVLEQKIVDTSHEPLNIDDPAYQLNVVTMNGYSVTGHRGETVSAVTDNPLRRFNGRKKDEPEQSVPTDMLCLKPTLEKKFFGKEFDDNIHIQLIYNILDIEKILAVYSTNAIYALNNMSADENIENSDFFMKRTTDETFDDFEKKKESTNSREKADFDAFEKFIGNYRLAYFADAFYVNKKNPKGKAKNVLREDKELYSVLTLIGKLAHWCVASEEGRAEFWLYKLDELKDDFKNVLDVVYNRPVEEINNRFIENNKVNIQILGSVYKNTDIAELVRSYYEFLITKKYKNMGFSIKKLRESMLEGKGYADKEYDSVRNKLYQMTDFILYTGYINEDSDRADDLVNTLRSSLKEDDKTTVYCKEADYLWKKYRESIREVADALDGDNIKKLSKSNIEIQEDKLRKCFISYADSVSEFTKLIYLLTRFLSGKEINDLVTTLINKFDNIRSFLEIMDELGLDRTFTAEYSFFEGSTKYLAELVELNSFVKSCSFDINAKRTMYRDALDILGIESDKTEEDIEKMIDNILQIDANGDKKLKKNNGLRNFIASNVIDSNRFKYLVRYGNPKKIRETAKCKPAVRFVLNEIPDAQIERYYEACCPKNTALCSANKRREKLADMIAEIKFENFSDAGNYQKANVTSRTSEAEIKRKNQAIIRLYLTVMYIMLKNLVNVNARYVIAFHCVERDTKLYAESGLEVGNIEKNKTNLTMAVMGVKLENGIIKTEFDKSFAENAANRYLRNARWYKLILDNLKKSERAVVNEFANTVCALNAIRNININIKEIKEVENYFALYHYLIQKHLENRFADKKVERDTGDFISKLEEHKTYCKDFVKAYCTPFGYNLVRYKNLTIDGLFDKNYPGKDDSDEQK
- Test name: crRNA (strand 1, pre-loaded); Mg2+; 40 mM Tris-HCl pH 7.5, 150 mM NaCl, 6 mM MgCl2, 1 mM DTT, 0.1% Tween-20, 0.2 mg/ml BSA; 25 C; 10 min per concentration, then washed
- Test context: tags: His6-TwinStrep-SUMO cleaved; N-terminal SNAP kept (SNAP-Surface 488); label: 3' end held by stalled T7 RNA polymerase
pKd: −log10 of the molar value.
Attribute measured: pKd

target 1 A1U,G12A (mixed) RNA 1: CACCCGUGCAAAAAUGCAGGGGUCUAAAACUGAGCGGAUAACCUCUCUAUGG RNA 2: GGGAAUGGAUCCACAUCUACGAAUUCGUACCAUAGAGAGAUUAUCCGCUCUCCGAGAUCGGAAGAGCACACGU : 8.28
target 1 U3G,A16G (mixed) RNA 1: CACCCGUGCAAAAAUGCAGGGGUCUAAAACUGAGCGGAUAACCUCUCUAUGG RNA 2: GGGAAUGGAUCCACAUCUACGAAUUCGUACCAUAGGGAGGUUAUCCGCGCACCGAGAUCGGAAGAGCACACGU : 7.57
target 2 MT 5'PFS ACU 3'PFS CCA (mixed) RNA 1: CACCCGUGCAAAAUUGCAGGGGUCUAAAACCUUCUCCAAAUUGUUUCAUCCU RNA 2: GGGAAUGGAUCCACAUCUACGAAUUCACUAGGAUGAAACAAUUUGGAGAAGCCAAGAUCGGAAGAGCACACGU : 8.14
